Test system: KM12
Test Protocol: NCI tumour cell line growth inhibition, 48 h
Calls of active or inactive are those of the source. Rule as the data show it: active = GI50 up to about 1.1 µM and inactive = higher.
Metric: GI50

[[record]]
compound = "CC(=O)NC(CCCCN(Cc1ccccc1)C(=O)N(C)N=O)C(=O)NCc1ccccc1 (centres undefined)"
metric = "GI50"
reported_value = "> 100 µM (inactive)"

[[record]]
compound = "O=S(=O)(O)c1cc(/N=[N+](\\[O-])c2ccc(/N=N/c3ccccc3)cc2S(=O)(=O)O)ccc1/C=C/c1ccc(/N=[N+](\\[O-])c2ccc(/N=N/c3ccccc3)cc2S(=O)(=O)O)cc1S(=O)(=O)O"
metric = "GI50"
reported_value = "> 100 µM (inactive)"


State recorded GI50 for all listed compounds.
1. C[C@H]1C=C2[C@@H]3CC(C)(C(=O)O)CC[C@]3(C)CC[C@]2(C)[C@]2(C)CC[C@H]3C(C)(C)[C@@H](OC(=O)c4cccc5c(=O)c6ccccc6[nH]c45)CC[C@]3(C)[C@@H]12 (some centres undefined)
2. CCCCCCc1cc2cc(C(=O)Nc3ccc(F)cc3)c(=N)oc2cc1O
3. CO[C@H](C(=O)O[C@H]1C(=O)N2CC[C@@H]3CCC[C@H]1C32C)c1ccccc1 (some centres undefined)
4. Cc1c2c(n3c(nc4ccccc43)c1C#N)NCC2

**A:**
1. 37.2 µM (inactive)
2. 2.92 µM (inactive)
3. > 100 µM (inactive)
4. > 10 µM (inactive)

State recorded GI50 for all listed compounds.
1. CC12CC(=O)C3C(CCC4=CC(=O)CCC43C)C1CC=C2CC(=O)O (centres undefined)
2. CCC1=CC2CN3Cn4c(c(COCc5c6n(c7ccccc57)CN5CC7C=C(CC)C5C6(C(=O)OC)C7)c5ccccc54)C(C(=O)OC)(C2)C13
3. O=C1NC(N2CCOCC2)=N/C1=C\c1ccc(O)cc1
4. Nc1ccc(C(=O)NN2C(=O)C(Cl)C2c2ccc([N+](=O)[O-])cc2)cc1 (centres undefined)
5. CC(=O)NC(CCCN(Cc1ccccc1)C(=O)NCCCl)C(=O)NCc1ccccc1 (centres undefined)
6. CC(Br)C(=O)Nc1ccc(C(=O)O)c(O)c1 (centres undefined)

**A:**
> 100 µM (inactive)
> 100 µM (inactive)
> 100 µM (inactive)
10.5 µM (inactive)
> 100 µM (inactive)
70.8 µM (inactive)

----------
Tested on: OVCAR-3
Test Protocol: NCI tumour cell line growth inhibition, 48 h
Calls of active or inactive are those of the source. Rule as the data show it: active = GI50 up to about 1.1 µM and inactive = higher.
Outcome (select one): y for active, n for inactive

[[record]]
compound = "c1ccc(-c2nc3ccccc3n3c(CN4CCCCC4)nnc23)cc1"
subject_of_test = "OVCAR-3"
class_name = "n"


**Q:** Which outcome was assigned to "c1ccc2c(Nc3ccc(Oc4ccc(Nc5c6ccccc6nc6ccccc56)cc4)cc3)c3ccccc3nc2c1" in this test?
**A:** y

**Q:** Which outcome was assigned to C=C1c2cc3c(cc2CC12Cc1cc4c(cc1C2=O)CCC4)CCC3 (stereo unspecified) in this test?
**A:** n

**Q:** Which outcome was assigned to "O=CCCCCCOCc1ccccc1" in this test?
**A:** n

**Q:** Which outcome was assigned to C=C(C)CCC(O)[C@](C)(O)[C@H]1[C@H](O)C[C@@]2(C)[C@@H]3CCc4c(cc(OC5OC(CO)C(O)C(O)C5O)c(O)c4C)C3(C)C(=O)C[C@]12C (stereo partly specified) in this test?
**A:** n

**Q:** Which outcome was assigned to CC(Br)C(=O)Nc1ccc(C(=O)O)c(O)c1 (stereo unspecified) in this test?
**A:** n

**Q:** Which outcome was assigned to "CCOC(=O)c1csc(NC(=O)CN2CCOCC2)n1" in this test?
**A:** n

----------
Field: GI50. Provide a value for each of the compounds that follow.
Test system: NCI-H226
Test Protocol: NCI tumour cell line growth inhibition, 48 h
Calls of active or inactive are those of the source. Cut-off read from the data, not from the text of the source: active = GI50 up to about 1.1 µM and inactive = higher.

In the examples that follow, each entry is paired with its recorded GI50.
[[record]]
compound = "CCc1cccc(C(C)C)c1NC(=O)CC1Sc2ccccc2NC1=O (stereo not drawn)"
reported_value = "> 100 µM (inactive)"

[[record]]
compound = "CCOP(=O)(O)C1C(CO)OC(n2ccc(=O)[nH]c2=O)C1O (stereo not drawn)"
reported_value = "> 100 µM (inactive)"

[[record]]
compound = "CC(C)=CC1C(COC(=O)c2cc3c(cc2Cl)OCO3)C1(C)C (stereo not drawn)"
reported_value = "42.4 µM (inactive)"


State recorded GI50 for all listed compounds.
1. CO[C@]12C#CC=CC#C[C@@H](O)[C@]3(CCC1)O[C@@]23c1cccc(O)c1
2. COc1cc(Cn2c3c(c4cc(O)ccc42)Cc2ccccc2C3=O)cc(OC)c1
3. Nc1cccc2c1C(=O)c1cccc(N)c1C2=O
4. CC(=O)O[C@@H]1C(=O)N(c2ccccc2)[C@@H]1c1cc2ccccc2c2ccccc12
5. COc1cc(/C=C2\CCC(C)C3C2=NN(C(C)=O)C3c2cc(OC)c(OC)c(OC)c2)cc(OC)c1OC (stereo not drawn)

**A:**
1: > 100 µM (inactive); 2: > 100 µM (inactive); 3: > 100 µM (inactive); 4: 7.1 µM (inactive); 5: > 100 µM (inactive)

----------
Field: GI50. Provide a value for each of the molecules that follow.
Test system: UACC-257
Test Protocol: NCI tumour cell line growth inhibition, 48 h
Activity calls are given as the source filed them. Rule as the data show it: active = GI50 up to about 1.1 µM and inactive = higher.

In the examples that follow, each entry is paired with its recorded GI50.
[[record]]
molecule = "c1ccc(-c2nc3ccccc3n3c(CN4CCCCC4)nnc23)cc1"
metric = "GI50"
reported_value = "> 100 µM (inactive)"

[[record]]
molecule = "O=[N+]([O-])/C=C/c1ccc2ccccc2c1"
metric = "GI50"
reported_value = "2.6 µM (inactive)"

[[record]]
molecule = "NC(Cc1ccccc1)P(=O)(O)O (stereo not given)"
metric = "GI50"
reported_value = "> 100 µM (inactive)"


State recorded GI50 for all listed molecules.
1. O=c1[nH]c(=O)n(COCc2ccccc2)c2ccccc12
2. CCCCCCC(=O)C/C(CCC(=O)N(Cc1ccccc1)Cc1ccccc1)=N\Nc1ccc([N+](=O)[O-])cc1[N+](=O)[O-]
3. N#Cc1c(-c2ccco2)cc(-c2ccccc2)nc1O
4. COc1nc(OC)c2c(=O)oc(-c3ccccc3)cc2n1

**A:**
1: 53.7 µM (inactive); 2: 48 µM (inactive); 3: > 100 µM (inactive); 4: > 100 µM (inactive)

State recorded GI50 for all listed molecules.
1. Nc1nc(SCc2ccc([N+](=O)[O-])cc2)nc2c1ncn2C1OC(COP(=O)(O)O)C(O)C1O (stereo not given)
2. N#C/C(=C\Nc1ccccn1)C(=O)C1CC1
3. CC(=O)NC1C(Sc2ncn(C3OC(CO)C(O)C(O)C3NC(C)=O)n2)OC(CO)C(O)C1O (stereo not given)

**A:**
1. > 100 µM (inactive)
2. > 100 µM (inactive)
3. > 100 µM (inactive)

----------
Test system: MDA-MB-231
Test Protocol: NCI tumour cell line growth inhibition, 48 h
Active and inactive are the calls of the source. Cut-off read from the data, not from the text of the source: active = GI50 up to about 1.1 µM and inactive = higher.
Outcome (select one): YES = active, NO = inactive

[[record]]
compound = "Cc1ccc(Nc2nc(=O)[nH]c(=O)[nH]2)cc1N"
class_name = "NO"

[[record]]
compound = "CC1(C)[C@@H]2CC[C@@]1(C)CN(CCC[N+](C)(C)C)C2"
class_name = "NO"


Would you kindly look at the next entry?
**Q:** Which outcome was assigned to COc1cccc2c1C(=O)c1c(O)c3c(c(O)c1C2=O)CC(O)(C(O)CO)CC3OC1CC2C(OC3COCC(C#N)N32)C(C)O1 (stereo not drawn) in this test?
**A:** YES

----------
Test system: SR
Test Protocol: NCI tumour cell line growth inhibition, 48 h
Activity calls are given as the source filed them. Cut-off read from the data, not from the text of the source: active = GI50 up to about 1.1 µM and inactive = higher.
Metric: GI50

[[record]]
compound = "N#CC(c1ccc(Cl)cc1)c1c(=O)[nH]c2ccc(N)cc2[n+]1[O-] (configuration not stated)"
reported_value = "> 100 µM (inactive)"

[[record]]
compound = "c1ccc(-c2nc3ccccc3n3c(CN4CCCCC4)nnc23)cc1"
reported_value = "> 100 µM (inactive)"

[[record]]
compound = "COc1cc(CNC(=S)CCCCCCCCCCC(C)C)ccc1O"
reported_value = "3.01 µM (inactive)"

[[record]]
compound = "O=C(O)/C=C\\C(=O)Nc1ccccn1"
reported_value = "> 100 µM (inactive)"

[[record]]
compound = "O=C(OC1C=C=CS(=O)(=O)CC#C/C=C\\1)c1cnc2ccccc2n1 (configuration not stated)"
reported_value = "68.9 µM (inactive)"

[[record]]
compound = "Cc1ccc([S+](c2ccccc2)c2cc(C)ccc2C)cc1 (configuration not stated)"
reported_value = "24.6 µM (inactive)"


Here's the next entry for you.
**Q:** # query: GI50 | item CCOC(=O)C(Cc1ccccc1)(Cc1ccc(O)cn1)NC(=O)c1ccccc1 (configuration not stated) | system: SR
**A:** 6.56 µM (inactive)

Data provenance: ChEMBL document CHEMBL1201862
